tested on: HSC-2 human oral cancer cell line; experiment: MTT cell proliferation assay, HSC-2; assay type: cell-based; settings: 48 h incubation
Each entry below lists one item and its recorded % of DMSO control at 100 μM, HSC-2, 48 h value.
property: % of DMSO control at 100 μM, HSC-2, 48 h

- mol: "CCOC(=O)[C@H](CCN(C/C=C/c1ccc(C#N)cc1)C[C@H]1O[C@@H](n2cnc3c(N)ncnc32)[C@H](O)[C@@H]1O)NC(=O)CC(C)(C)c1c(C)cc(C)cc1OC(C)=O"
  system: "HSC-2 human oral cancer cell line"
  result: "44 % of DMSO control"
- mol: "CCOC(=O)[C@@H](N)CCN(C/C=C/c1ccc(C#N)cc1)C[C@H]1O[C@@H](n2cnc3c(N)ncnc32)[C@H](O)[C@@H]1O"
  system: "HSC-2 human oral cancer cell line"
  result: "100 % of DMSO control"
- mol: "CCCOC(=O)[C@@H](N)CCN(C/C=C/c1ccc(C#N)cc1)C[C@H]1O[C@@H](n2cnc3c(N)ncnc32)[C@H](O)[C@@H]1O"
  system: "HSC-2 human oral cancer cell line"
  result: "57 % of DMSO control"
- mol: "CC(C)OC(=O)[C@@H](N)CCN(C/C=C/c1ccc(C#N)cc1)C[C@H]1O[C@@H](n2cnc3c(N)ncnc32)[C@H](O)[C@@H]1O"
  system: "HSC-2 human oral cancer cell line"
  result: "75 % of DMSO control"
- mol: "N#Cc1ccc(/C=C/CN(CC[C@H](N)C(=O)O)C[C@H]2O[C@@H](n3cnc4c(N)ncnc43)[C@H](O)[C@@H]2O)cc1"
  system: "HSC-2 human oral cancer cell line"
  result: "53 % of DMSO control"
- mol: "CC(=O)Oc1cc(C)cc(C)c1C(C)(C)CC(=O)N[C@@H](CCN(C/C=C/c1ccc(C#N)cc1)C[C@H]1O[C@@H](n2cnc3c(N)ncnc32)[C@H](O)[C@@H]1O)C(=O)O"
  system: "HSC-2 human oral cancer cell line"
  result: "100 % of DMSO control"

---

Measured IC50 values are reported for all entries that follow.
Molecular target: UniProt P40261
Sequence (P40261 1-264): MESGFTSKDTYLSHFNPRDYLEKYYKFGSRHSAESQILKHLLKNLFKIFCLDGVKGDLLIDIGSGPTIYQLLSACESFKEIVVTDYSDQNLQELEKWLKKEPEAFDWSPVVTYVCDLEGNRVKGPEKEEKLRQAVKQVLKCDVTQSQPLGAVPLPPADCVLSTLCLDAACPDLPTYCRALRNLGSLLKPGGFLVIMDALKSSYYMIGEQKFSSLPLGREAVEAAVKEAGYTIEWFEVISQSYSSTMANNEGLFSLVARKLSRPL
Test: NNMT assay (HILIC-MS/MS, formation of MNA)
Conditions: IC50 values (nM), Table 3, 1-carbon alkyl linkers; NA 200 μM, SAM 8.5 μM; maximum concentration tested 25 μM

- molecule: "Nc1ncnc2c1ncn2[C@@H]1O[C@H](CN(CC[C@H](N)C(=O)O)Cc2ccc(C(F)(F)F)cc2)[C@@H](O)[C@H]1O [GYZ-414]"
  unit_spec: "nM"
  value_relation_sign: "="
  IC50: 6790
- molecule: "Nc1ncnc2c1ncn2[C@@H]1O[C@H](CN(CC[C@H](N)C(=O)O)Cc2cccc([N+](=O)[O-])c2)[C@@H](O)[C@H]1O [GYZ-419]"
  unit_spec: "nM"
  value_relation_sign: "="
  IC50: 320
- molecule: "Nc1ncnc2c1ncn2[C@@H]1O[C@H](CN(CC[C@H](N)C(=O)O)Cc2ccc(F)cc2)[C@@H](O)[C@H]1O [GYZ-423]"
  unit_spec: "nM"
  value_relation_sign: ">"
  IC50: 25000
- molecule: "Nc1ncnc2c1ncn2[C@@H]1O[C@H](CN(CC[C@H](N)C(=O)O)Cc2cccc(F)c2)[C@@H](O)[C@H]1O [GYZ-422]"
  unit_spec: "nM"
  value_relation_sign: "="
  IC50: 1240
- molecule: "Nc1ncnc2c1ncn2[C@@H]1O[C@H](CN(CC[C@H](N)C(=O)O)Cc2ccc(S(=O)(=O)F)cc2)[C@@H](O)[C@H]1O [GYZ-760]"
  unit_spec: "nM"
  value_relation_sign: "="
  IC50: 5620
- molecule: "Nc1ncnc2c1ncn2[C@@H]1O[C@H](CN(CC[C@H](N)C(=O)O)Cc2cccc(C(F)(F)F)c2)[C@@H](O)[C@H]1O [GYZ-416]"
  unit_spec: "nM"
  value_relation_sign: "="
  IC50: 6580
- molecule: "Nc1ncnc2c1ncn2[C@@H]1O[C@H](CN(CC[C@H](N)C(=O)O)Cc2ccccc2F)[C@@H](O)[C@H]1O [GYZ-421]"
  unit_spec: "nM"
  value_relation_sign: ">"
  IC50: 25000
- molecule: "Nc1ncnc2c1ncn2[C@@H]1O[C@H](CN(CC[C@H](N)C(=O)O)Cc2ccccc2[N+](=O)[O-])[C@@H](O)[C@H]1O [GYZ-425]"
  unit_spec: "nM"
  value_relation_sign: ">"
  IC50: 25000
- molecule: "Nc1ncnc2c1ncn2[C@@H]1O[C@H](CN(CC[C@H](N)C(=O)O)Cc2ccccc2C(F)(F)F)[C@@H](O)[C@H]1O [GYZ-415]"
  unit_spec: "nM"
  value_relation_sign: "="
  IC50: 9700
- molecule: "Nc1ncnc2c1ncn2[C@@H]1O[C@H](CN(CC[C@H](N)C(=O)O)Cc2ccc([N+](=O)[O-])cc2)[C@@H](O)[C@H]1O [GYZ-420]"
  unit_spec: "nM"
  value_relation_sign: "="
  IC50: 6610

---

test system: A549 human lung cancer line; assay: MTT cell proliferation assay, A549; type: cell-based; conditions: 48 h incubation

- mol: "CC(C)OC(=O)[C@@H](N)CCN(C/C=C/c1ccc(C#N)cc1)C[C@H]1O[C@@H](n2cnc3c(N)ncnc32)[C@H](O)[C@@H]1O"
  system: "A549 human lung cancer line"
  % of DMSO control at 100 μM, A549, 48 h: "100 % of DMSO control"
- mol: "CCOC(=O)[C@@H](N)CCN(C/C=C/c1ccc(C#N)cc1)C[C@H]1O[C@@H](n2cnc3c(N)ncnc32)[C@H](O)[C@@H]1O"
  system: "A549 human lung cancer line"
  % of DMSO control at 100 μM, A549, 48 h: "100 % of DMSO control"
- mol: "N#Cc1ccc(/C=C/CN(CC[C@H](N)C(=O)O)C[C@H]2O[C@@H](n3cnc4c(N)ncnc43)[C@H](O)[C@@H]2O)cc1"
  system: "A549 human lung cancer line"
  % of DMSO control at 100 μM, A549, 48 h: "74 % of DMSO control"
- mol: "CCCOC(=O)[C@@H](N)CCN(C/C=C/c1ccc(C#N)cc1)C[C@H]1O[C@@H](n2cnc3c(N)ncnc32)[C@H](O)[C@@H]1O"
  system: "A549 human lung cancer line"
  % of DMSO control at 100 μM, A549, 48 h: "100 % of DMSO control"
- mol: "CC(=O)Oc1cc(C)cc(C)c1C(C)(C)CC(=O)N[C@@H](CCN(C/C=C/c1ccc(C#N)cc1)C[C@H]1O[C@@H](n2cnc3c(N)ncnc32)[C@H](O)[C@@H]1O)C(=O)O"
  system: "A549 human lung cancer line"
  % of DMSO control at 100 μM, A549, 48 h: "100 % of DMSO control"
- mol: "CCCOC(=O)[C@H](CCN(C/C=C/c1ccc(C#N)cc1)C[C@H]1O[C@@H](n2cnc3c(N)ncnc32)[C@H](O)[C@@H]1O)NC(=O)CC(C)(C)c1c(C)cc(C)cc1OC(C)=O"
  system: "A549 human lung cancer line"
  % of DMSO control at 100 μM, A549, 48 h: "45 % of DMSO control"
- mol: "COC(=O)[C@@H](N)CCN(C/C=C/c1ccc(C#N)cc1)C[C@H]1O[C@@H](n2cnc3c(N)ncnc32)[C@H](O)[C@@H]1O"
  system: "A549 human lung cancer line"
  % of DMSO control at 100 μM, A549, 48 h: "100 % of DMSO control"
- mol: "COC(=O)[C@H](CCN(C/C=C/c1ccc(C#N)cc1)C[C@H]1O[C@@H](n2cnc3c(N)ncnc32)[C@H](O)[C@@H]1O)NC(=O)CC(C)(C)c1c(C)cc(C)cc1OC(C)=O"
  system: "A549 human lung cancer line"
  % of DMSO control at 100 μM, A549, 48 h: "100 % of DMSO control"
- mol: "CCOC(=O)[C@H](CCN(C/C=C/c1ccc(C#N)cc1)C[C@H]1O[C@@H](n2cnc3c(N)ncnc32)[C@H](O)[C@@H]1O)NC(=O)CC(C)(C)c1c(C)cc(C)cc1OC(C)=O"
  system: "A549 human lung cancer line"
  % of DMSO control at 100 μM, A549, 48 h: "100 % of DMSO control"
